biological target: CFTR (Homo sapiens, UniProt P13569, DEL508-508); construct: endogenous in cells; host or cells: primary human bronchial epithelial cells from CF subjects (F508del/MF-HBE), differentiated at air-liquid interface; test: HBE assay: Ussing chamber assay of CFTR-mediated short-circuit currents; type: cell-based; details: Table 10; read-out: HBE EC50
Sequence (P13569 with tags, fused parts or gaps DEL508-508): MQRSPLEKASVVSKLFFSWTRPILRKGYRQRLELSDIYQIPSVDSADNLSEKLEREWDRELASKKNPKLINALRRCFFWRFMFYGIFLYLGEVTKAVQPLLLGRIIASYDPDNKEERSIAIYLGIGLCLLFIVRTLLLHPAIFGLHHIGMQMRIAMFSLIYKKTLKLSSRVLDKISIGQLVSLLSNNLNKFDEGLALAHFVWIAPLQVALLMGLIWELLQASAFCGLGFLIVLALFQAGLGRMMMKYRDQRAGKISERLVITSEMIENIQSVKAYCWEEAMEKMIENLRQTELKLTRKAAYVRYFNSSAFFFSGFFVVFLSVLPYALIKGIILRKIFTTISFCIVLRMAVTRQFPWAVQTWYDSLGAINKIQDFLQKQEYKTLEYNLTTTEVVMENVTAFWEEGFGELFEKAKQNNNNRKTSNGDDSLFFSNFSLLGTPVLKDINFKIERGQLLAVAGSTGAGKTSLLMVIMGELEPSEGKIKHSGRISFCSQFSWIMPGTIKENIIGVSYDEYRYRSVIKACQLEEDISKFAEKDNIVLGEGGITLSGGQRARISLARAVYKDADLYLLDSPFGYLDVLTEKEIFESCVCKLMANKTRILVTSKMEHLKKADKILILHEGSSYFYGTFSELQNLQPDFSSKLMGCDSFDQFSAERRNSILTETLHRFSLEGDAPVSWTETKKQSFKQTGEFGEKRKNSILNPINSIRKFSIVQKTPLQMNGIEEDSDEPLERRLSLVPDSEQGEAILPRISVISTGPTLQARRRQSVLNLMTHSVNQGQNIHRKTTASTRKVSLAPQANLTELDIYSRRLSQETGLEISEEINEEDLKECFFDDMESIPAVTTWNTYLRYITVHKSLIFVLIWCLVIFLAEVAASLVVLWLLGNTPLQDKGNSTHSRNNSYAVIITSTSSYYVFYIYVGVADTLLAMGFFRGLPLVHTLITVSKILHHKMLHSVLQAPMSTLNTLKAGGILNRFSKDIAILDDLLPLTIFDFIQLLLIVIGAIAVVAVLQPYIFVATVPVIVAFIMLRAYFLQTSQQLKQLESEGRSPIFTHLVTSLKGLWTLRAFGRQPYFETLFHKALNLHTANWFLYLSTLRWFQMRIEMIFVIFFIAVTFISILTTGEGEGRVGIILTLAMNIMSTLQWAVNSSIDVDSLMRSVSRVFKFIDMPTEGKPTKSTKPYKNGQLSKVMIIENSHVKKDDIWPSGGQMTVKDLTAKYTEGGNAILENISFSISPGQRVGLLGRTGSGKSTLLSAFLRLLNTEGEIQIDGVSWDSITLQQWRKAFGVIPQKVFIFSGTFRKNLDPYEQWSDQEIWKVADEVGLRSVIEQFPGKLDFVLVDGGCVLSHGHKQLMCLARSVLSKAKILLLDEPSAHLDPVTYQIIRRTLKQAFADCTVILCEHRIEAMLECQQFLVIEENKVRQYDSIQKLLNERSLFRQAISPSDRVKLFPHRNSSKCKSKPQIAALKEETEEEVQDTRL
quantity-kind: EC50

Kindly note: CFTR (Homo sapiens, UniProt P13569, DEL508-508), COc1cnc(CN2C(=O)c3cccc(c3)S(=O)(=O)Nc3nc(cc(-c4c(C)cccc4C)n3)OC[C@H]2CC(C)(C)C)nc1 , EC50 value reported: < 1 µM

Note to self: EC50 of Cc1cccc(C)c1-c1cc2nc(n1)NS(=O)(=O)c1cccc(c1)C(=O)N(Cc1ccc(-c3cnc(O)nc3)cc1)[C@H](CC(C)(C)C)CO2 with CFTR (Homo sapiens, UniProt P13569, DEL508-508) was 1 to 3 µM

EC50 value, target or system CFTR (Homo sapiens, UniProt P13569, DEL508-508), for Cc1cccc(C)c1-c1cc2nc(n1)NS(=O)(=O)c1cccc(c1)C(=O)N(Cc1cc(C(C)(C)C)[nH]n1)[C@H](CC(C)(C)C)CO2 : < 1 µM

CFTR (Homo sapiens, UniProt P13569, DEL508-508) data for Cc1cccc(C)c1-c1cc2nc(n1)NS(=O)(=O)c1cccc(c1)C(=O)N(Cc1ccc(-c3cn[nH]c3)cn1)[C@H](CC(C)(C)C)CO2 ; its EC50: < 1 µM

Test item Cc1cccc(C)c1-c1cc2nc(n1)NS(=O)(=O)c1cccc(c1)C(=O)N(Cc1ccc(N3CC(=O)NC3=O)cc1)[C@H](CC(C)(C)C)CO2 ; CFTR (Homo sapiens, UniProt P13569, DEL508-508); reported EC50 was 1 to 3 µM

Let me check: Cc1cccc(C)c1-c1cc2nc(n1)NS(=O)(=O)c1cccc(c1)C(=O)N(Cc1ncccc1-c1c(C)n[nH]c1C)[C@H](CC(C)(C)C)CO2 , system CFTR (Homo sapiens, UniProt P13569, DEL508-508), measured EC50 is < 1 µM

Entry COc1cccnc1CN1C(=O)c2cccc(c2)S(=O)(=O)Nc2nc(cc(-c3c(C)cccc3C)n2)OC[C@H]1CC(C)(C)C , CFTR (Homo sapiens, UniProt P13569, DEL508-508) data, EC50 value: < 1 µM

The reported CFTR (Homo sapiens, UniProt P13569, DEL508-508) EC50 of Cc1cccc(C)c1-c1cc2nc(n1)NS(=O)(=O)c1cccc(c1)C(=O)N(Cc1ncccc1N1CCCCC1)[C@H](CC(C)(C)C)CO2 is < 1 µM

// assay CFTR (Homo sapiens, UniProt P13569, DEL508-508), entry Cc1cccc(C)c1-c1cc2nc(n1)NS(=O)(=O)c1cccc(c1)C(=O)N(Cc1ccc(OC3CCCC3)cn1)[C@H](CC(C)(C)C)CO2 , EC50 value = 1 to 3 µM

Item: Cc1cccc(C)c1-c1cc2nc(n1)NS(=O)(=O)c1cccc(c1)C(=O)N(Cc1ccc(-c3c[nH]nc3C3CC3)cn1)[C@H](CC(C)(C)C)CO2 | System: CFTR (Homo sapiens, UniProt P13569, DEL508-508) | EC50: < 1 µM

The compound Cc1cccc(C)c1-c1cc2nc(n1)NS(=O)(=O)c1cccc(c1)C(=O)N(Cc1ccc(C3CCCCC3)cn1)[C@H](CC(C)(C)C)CO2 on CFTR (Homo sapiens, UniProt P13569, DEL508-508): EC50 was 1 to 3 µM

Item Cc1cccc(C)c1-c1cc2nc(n1)NS(=O)(=O)c1cccc(c1)C(=O)N(CC1CCC(N3CCOCC3)CC1)[C@H](CC(C)(C)C)CO2 (single isomer, unassigned) [Compound 154] was tested on CFTR (Homo sapiens, UniProt P13569, DEL508-508); the reported EC50 is < 1 µM

Where do the numbers come from? From patent US20240150377A1.
